B1: Gamma-crystallin C, residues 4 to 79; numbered along this chain, P07315 (parent)
chain: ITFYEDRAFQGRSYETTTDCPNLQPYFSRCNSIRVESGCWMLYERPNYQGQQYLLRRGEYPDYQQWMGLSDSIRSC

variants of: B1; experiment: abundance fitness (aPCA) (normalised: wild type 0, dead -1); higher = more abundant; growth selection in yeast, the domain comes from the species named; conditions: Homo sapiens
I'd appreciate it if you could supply abundance fitness values for the items below.
One number for each entry.

// known answers, use as guide
Mutant designation: Q65L
abundance fitness: -0.088

Mutant designation: R45W
abundance fitness: -0.04

Mutant designation: L69R
abundance fitness: -0.021

Mutant designation: G38S
abundance fitness: 0

Mutant designation: N22S
abundance fitness: 0.012

Kindly consider the entry below.
query: Form field: reported abundance fitness of P61R
result: -0.038

Attribution: the Human Domainome abundance scans (Beltran et al. 2025)
